target: T1, human TSH receptor (full length), coated on tubes (human, UniProt P16473 22-764); assay: inhibition of 125I-K1-70 Fab (competitor) binding to TSHR coated tubes; 0.01 µg/mL in assay buffer
T1 construct: TSHR coated tubes as described in WO2004/050708A2; The receptor is full length and held on plastic tubes through a mouse MAb to the TSHR; also called thyroid stimulating hormone receptor
Form field: Inhibition of binding (%) (one value per entry).
Answer in %, number only, no unit symbol.

binder="K1-18 Fab (Fab, V domains shown) VH: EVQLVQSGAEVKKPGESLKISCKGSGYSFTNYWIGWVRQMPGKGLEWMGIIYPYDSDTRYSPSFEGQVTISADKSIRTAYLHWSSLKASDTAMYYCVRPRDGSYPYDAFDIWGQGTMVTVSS VL: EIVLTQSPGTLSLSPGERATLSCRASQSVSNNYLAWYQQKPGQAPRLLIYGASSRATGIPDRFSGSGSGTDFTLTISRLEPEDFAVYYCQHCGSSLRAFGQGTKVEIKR" units_text=% measured_result=16.7

Exercise: Data request, read-out Inhibition of binding (%), for K1-70 Fab (Fab, V domains shown) VH: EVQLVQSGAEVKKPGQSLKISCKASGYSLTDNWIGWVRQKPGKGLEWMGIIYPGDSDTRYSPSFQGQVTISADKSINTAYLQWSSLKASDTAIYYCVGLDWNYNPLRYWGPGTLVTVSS VL: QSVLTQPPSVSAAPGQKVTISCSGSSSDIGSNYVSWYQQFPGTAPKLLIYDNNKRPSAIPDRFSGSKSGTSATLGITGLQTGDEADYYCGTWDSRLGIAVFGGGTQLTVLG
Solution: 75.6

Exercise: Data request, read-out Inhibition of binding (%), for K1-18 IgG (antibody, V domains shown, Human IgG1 kappa purified from hetero-hybridoma supernatant; also called human monoclonal autoantibody to the TSHR with TSH agonist activity) VH: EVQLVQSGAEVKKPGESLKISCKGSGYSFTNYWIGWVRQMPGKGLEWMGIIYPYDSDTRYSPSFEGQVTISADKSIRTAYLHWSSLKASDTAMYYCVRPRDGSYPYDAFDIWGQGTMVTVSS VL: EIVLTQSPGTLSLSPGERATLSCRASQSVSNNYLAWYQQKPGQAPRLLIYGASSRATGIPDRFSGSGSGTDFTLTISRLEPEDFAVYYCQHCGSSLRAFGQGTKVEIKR
Solution: 30.3

Exercise: Data request, read-out Inhibition of binding (%), for K1-70 IgG (antibody, V domains shown, Human IgG1 lambda purified from hetero-hybridoma supernatant; also called human monoclonal autoantibody to the TSHR with TSH antagonist activity) VH: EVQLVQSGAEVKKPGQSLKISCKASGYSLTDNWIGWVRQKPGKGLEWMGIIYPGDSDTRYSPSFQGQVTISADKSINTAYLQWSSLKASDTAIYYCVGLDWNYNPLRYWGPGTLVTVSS VL: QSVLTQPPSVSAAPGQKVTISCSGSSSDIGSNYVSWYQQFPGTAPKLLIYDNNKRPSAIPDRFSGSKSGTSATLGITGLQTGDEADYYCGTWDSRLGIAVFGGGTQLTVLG
Solution: 66.2

Cited source: patent US20110300138A1
